molecular target: B-Raf^V600E (Homo sapiens, UniProt P15056, V600E); construct: purchased Reaction Biology Co. (Kinase HotSpot service); assay: In vitro biochemical kinase assay (Kinase HotSpot, Reaction Biology), one-point and 10-dose; details: 10-dose, threefold serial dilution from 20 μM, ATP 10 μM
Sequence (P15056 whole entry V600E): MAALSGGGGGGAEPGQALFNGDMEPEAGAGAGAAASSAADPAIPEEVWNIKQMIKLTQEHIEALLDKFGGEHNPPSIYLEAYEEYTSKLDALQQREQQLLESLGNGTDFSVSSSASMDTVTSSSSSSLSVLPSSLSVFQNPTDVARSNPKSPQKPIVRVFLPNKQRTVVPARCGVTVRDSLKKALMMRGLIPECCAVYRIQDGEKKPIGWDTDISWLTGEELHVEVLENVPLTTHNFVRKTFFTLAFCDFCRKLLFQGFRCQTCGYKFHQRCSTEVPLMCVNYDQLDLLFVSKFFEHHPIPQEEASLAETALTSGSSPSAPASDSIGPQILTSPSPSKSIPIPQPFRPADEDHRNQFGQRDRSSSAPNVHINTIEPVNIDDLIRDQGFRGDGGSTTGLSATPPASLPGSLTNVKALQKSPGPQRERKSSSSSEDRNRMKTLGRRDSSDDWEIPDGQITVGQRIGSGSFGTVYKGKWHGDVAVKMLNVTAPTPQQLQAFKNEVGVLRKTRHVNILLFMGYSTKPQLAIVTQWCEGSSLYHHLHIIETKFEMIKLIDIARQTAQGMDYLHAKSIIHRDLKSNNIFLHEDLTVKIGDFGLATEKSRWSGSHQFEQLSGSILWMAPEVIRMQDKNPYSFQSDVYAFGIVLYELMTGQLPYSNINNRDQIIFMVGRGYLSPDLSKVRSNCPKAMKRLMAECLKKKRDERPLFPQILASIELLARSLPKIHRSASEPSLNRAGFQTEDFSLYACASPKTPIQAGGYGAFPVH
measurement-name: IC50 (nM)
Give just the number in nM; leave the unit off.

The compound listed as CNC(=O)c1cc(Oc2ccc3c(C(=O)Nc4cccc(OC(F)F)c4)cccc3c2)ccn1 [Compound 9a] shows IC50 equal to 18

###

target: B-Raf^WT (Homo sapiens); construct: purchased Reaction Biology Co. (Kinase HotSpot service); test: In vitro biochemical kinase assay (Kinase HotSpot, Reaction Biology), one-point and 10-dose; conditions: 10 µM compound, duplicate, ATP 10 μM; read-out: In vitro protein kinase inhibition values (%) B-Raf^WT
measurement-name: inhibition at 10 µM (%)
Give just the number in %; leave the unit off.

The compound listed as CNC(=O)c1cc(Oc2ccc3c(C(=O)Nc4ccc(C(C)C)cc4)cccc3c2)ccn1 [Compound 9b] shows inhibition at 10 µM equal to 98.4

The compound listed as CNC(=O)c1cc(Oc2ccc3c(C(=O)Nc4ccc(N5CCOCC5)c(F)c4)cccc3c2)ccn1 [Compound 9e] shows inhibition at 10 µM equal to 42.1

The compound listed as CNC(=O)c1cc(Oc2ccc3c(C(=O)Nc4cc(C)cc(Br)c4)cccc3c2)ccn1 [Compound 9h] shows inhibition at 10 µM equal to 99.6

The compound listed as CNC(=O)c1cc(Oc2ccc3c(C(=O)Nc4ccc(F)cc4)cccc3c2)ccn1 [Compound 9f] shows inhibition at 10 µM equal to 74.7

The compound listed as CNC(=O)c1cc(Oc2ccc3c(C(=O)Nc4cccc(OC(F)F)c4)cccc3c2)ccn1 [Compound 9a] shows inhibition at 10 µM equal to 99.4

###

target: UniProt:P04049; test: In vitro biochemical kinase assay (Kinase HotSpot, Reaction Biology), one-point and 10-dose; details: 10 µM compound, duplicate, ATP 10 μM; read-out: In vitro protein kinase inhibition values (%) c-Raf
inhibition at 10 µM values for the compounds below.
Give just the number in %; leave the unit off.

Completed entries (count: 5):
>  <structure-string>
CNC(=O)c1cc(Oc2ccc3c(C(=O)Nc4ccc(I)cc4)cccc3c2)ccn1

>  <number>
98.9

$$$$
>  <structure-string>
CNC(=O)c1cc(Oc2ccc3c(C(=O)Nc4ccc(F)cc4)cccc3c2)ccn1

>  <number>
96.5

$$$$
>  <structure-string>
CNC(=O)c1cc(Oc2ccc3c(C(=O)Nc4cccc(OC(F)F)c4)cccc3c2)ccn1

>  <number>
99.8

$$$$
>  <structure-string>
CNC(=O)c1cc(Oc2ccc3c(C(=O)Nc4ccc(OC)c(F)c4)cccc3c2)ccn1

>  <number>
99.6

$$$$
>  <structure-string>
CNC(=O)c1cc(Oc2ccc3c(C(=O)Nc4ccc(C)c(C)c4)cccc3c2)ccn1

>  <number>
99.8

$$$$

The compound listed as `CNC(=O)c1cc(Oc2ccc3c(C(=O)Nc4cc(C)cc(Br)c4)cccc3c2)ccn1` shows inhibition at 10 µM equal to 99.8

The compound listed as `CNC(=O)c1cc(Oc2ccc3c(C(=O)Nc4ccc(OC)c(Cl)c4)cccc3c2)ccn1` shows inhibition at 10 µM equal to 99.6

The compound listed as `CNC(=O)c1cc(Oc2ccc3c(C(=O)Nc4ccc(N5CCOCC5)c(F)c4)cccc3c2)ccn1` shows inhibition at 10 µM equal to 76.3

The compound listed as `CNC(=O)c1cc(Oc2ccc3c(C(=O)Nc4ccc(C(C)C)cc4)cccc3c2)ccn1` shows inhibition at 10 µM equal to 99.7

###

target: B-Raf^WT (Homo sapiens, UniProt P15056); construct: purchased Reaction Biology Co. (Kinase HotSpot service); experiment: In vitro biochemical kinase assay (Kinase HotSpot, Reaction Biology), one-point and 10-dose; details: 10-dose, threefold serial dilution from 20 μM, ATP 10 μM
Sequence (P15056 whole entry): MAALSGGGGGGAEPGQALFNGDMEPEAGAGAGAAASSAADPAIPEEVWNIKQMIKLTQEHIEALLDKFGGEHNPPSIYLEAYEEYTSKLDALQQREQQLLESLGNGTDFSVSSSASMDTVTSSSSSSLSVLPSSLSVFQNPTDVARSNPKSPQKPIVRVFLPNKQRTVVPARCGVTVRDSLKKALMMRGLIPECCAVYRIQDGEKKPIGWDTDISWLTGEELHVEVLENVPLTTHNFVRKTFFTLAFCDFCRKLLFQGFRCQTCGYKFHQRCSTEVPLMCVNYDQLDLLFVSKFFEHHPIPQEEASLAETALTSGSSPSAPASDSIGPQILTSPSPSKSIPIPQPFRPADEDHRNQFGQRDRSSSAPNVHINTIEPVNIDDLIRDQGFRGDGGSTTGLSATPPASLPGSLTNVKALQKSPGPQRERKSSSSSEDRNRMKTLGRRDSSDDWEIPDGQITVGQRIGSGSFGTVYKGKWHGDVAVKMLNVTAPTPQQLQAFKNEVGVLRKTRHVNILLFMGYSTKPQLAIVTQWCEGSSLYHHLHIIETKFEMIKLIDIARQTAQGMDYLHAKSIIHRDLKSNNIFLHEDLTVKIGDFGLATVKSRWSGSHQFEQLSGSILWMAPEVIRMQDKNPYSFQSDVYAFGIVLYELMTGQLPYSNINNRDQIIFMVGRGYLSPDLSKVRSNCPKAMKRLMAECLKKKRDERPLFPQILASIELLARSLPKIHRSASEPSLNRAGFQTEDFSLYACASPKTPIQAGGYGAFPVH
measurement-name: IC50

The molecule listed as CNC(=O)c1cc(Oc2ccc3c(C(=O)Nc4cccc(OC(F)F)c4)cccc3c2)ccn1 [Compound 9a] shows IC50 equal to 49.7 nM

###

target: c-Raf (Homo sapiens, UniProt P04049); test: In vitro biochemical kinase assay (Kinase HotSpot, Reaction Biology), one-point and 10-dose; details: 10-dose, threefold serial dilution from 20 μM, ATP 10 μM
Sequence (P04049 whole entry): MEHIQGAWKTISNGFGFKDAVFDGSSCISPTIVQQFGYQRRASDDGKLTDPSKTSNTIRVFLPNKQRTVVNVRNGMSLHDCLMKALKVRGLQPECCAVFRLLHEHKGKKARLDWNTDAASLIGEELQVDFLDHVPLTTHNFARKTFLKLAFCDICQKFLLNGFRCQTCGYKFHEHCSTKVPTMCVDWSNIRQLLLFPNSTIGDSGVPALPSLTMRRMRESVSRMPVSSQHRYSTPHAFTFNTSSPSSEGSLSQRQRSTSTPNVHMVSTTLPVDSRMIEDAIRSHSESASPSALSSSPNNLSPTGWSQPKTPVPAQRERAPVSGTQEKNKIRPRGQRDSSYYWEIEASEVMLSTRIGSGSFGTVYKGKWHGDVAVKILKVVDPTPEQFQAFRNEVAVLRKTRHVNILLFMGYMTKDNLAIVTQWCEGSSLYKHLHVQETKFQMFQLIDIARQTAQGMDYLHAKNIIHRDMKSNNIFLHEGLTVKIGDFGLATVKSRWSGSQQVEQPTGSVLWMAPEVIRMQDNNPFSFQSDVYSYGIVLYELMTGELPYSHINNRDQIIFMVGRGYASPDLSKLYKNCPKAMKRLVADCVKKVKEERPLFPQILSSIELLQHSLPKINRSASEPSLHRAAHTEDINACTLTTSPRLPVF
measurement-name: IC50 (nM)
Give just the number in nM; leave the unit off.

The compound listed as `CNC(=O)c1cc(Oc2ccc3c(C(=O)Nc4cccc(OC(F)F)c4)cccc3c2)ccn1` shows IC50 equal to 2.86

###

target: B-Raf^V600E (Homo sapiens, UniProt P15056, V600E); construct: purchased Reaction Biology Co. (Kinase HotSpot service); experiment: In vitro biochemical kinase assay (Kinase HotSpot, Reaction Biology), one-point and 10-dose; details: 10 µM compound, duplicate, ATP 10 μM; read-out: In vitro protein kinase inhibition values (%) B-Raf^V600E
measurement-name: inhibition at 10 µM (%)
Give just the number in %; leave the unit off.

Completed entries (count: 3):
>  <structure-string>
CNC(=O)c1cc(Oc2ccc3c(C(=O)Nc4cc(C)cc(Br)c4)cccc3c2)ccn1

>  <inhibition at 10 µM (%)>
100

$$$$
>  <structure-string>
CNC(=O)c1cc(Oc2ccc3c(C(=O)Nc4ccc(F)cc4)cccc3c2)ccn1

>  <inhibition at 10 µM (%)>
75.8

$$$$
>  <structure-string>
CNC(=O)c1cc(Oc2ccc3c(C(=O)Nc4ccc(N5CCOCC5)c(F)c4)cccc3c2)ccn1

>  <inhibition at 10 µM (%)>
24.9

$$$$

Continue with the compound presented below.
The compound listed as `CNC(=O)c1cc(Oc2ccc3c(C(=O)Nc4ccc(OC)c(F)c4)cccc3c2)ccn1` shows inhibition at 10 µM equal to 98.2

###

target: B-Raf^V600E (Homo sapiens, UniProt P15056, V600E); construct: purchased Reaction Biology Co. (Kinase HotSpot service); experiment: In vitro biochemical kinase assay (Kinase HotSpot, Reaction Biology), one-point and 10-dose; settings: 10 µM compound, duplicate, ATP 10 μM; read-out: In vitro protein kinase inhibition values (%) B-Raf^V600E
inhibition at 10 µM values for the compounds below.
Give just the number in %; leave the unit off.

>  <structure-string>
CNC(=O)c1cc(Oc2ccc3c(C(=O)Nc4ccc(I)cc4)cccc3c2)ccn1

>  <units-label>
%

>  <inhibition at 10 µM>
88.6

$$$$
>  <structure-string>
CNC(=O)c1cc(Oc2ccc3c(C(=O)Nc4ccc(OC)c(Cl)c4)cccc3c2)ccn1

>  <units-label>
%

>  <inhibition at 10 µM>
100

$$$$

The compound listed as `CNC(=O)c1cc(Oc2ccc3c(C(=O)Nc4cccc(OC(F)F)c4)cccc3c2)ccn1` shows inhibition at 10 µM equal to 100

The compound listed as `CNC(=O)c1cc(Oc2ccc3c(C(=O)Nc4ccc(C(C)C)cc4)cccc3c2)ccn1` shows inhibition at 10 µM equal to 98.4

The compound listed as `CNC(=O)c1cc(Oc2ccc3c(C(=O)Nc4ccc(C)c(C)c4)cccc3c2)ccn1` shows inhibition at 10 µM equal to 100

###

target: B-Raf^WT (Homo sapiens, UniProt P15056); construct: purchased Reaction Biology Co. (Kinase HotSpot service); assay: In vitro biochemical kinase assay (Kinase HotSpot, Reaction Biology), one-point and 10-dose; conditions: 10 µM compound, duplicate, ATP 10 μM; read-out: In vitro protein kinase inhibition values (%) B-Raf^WT
measurement-name: inhibition at 10 µM (%)
Give just the number in %; leave the unit off.

Completed entries (count: 3):
>  <molecule>
CNC(=O)c1cc(Oc2ccc3c(C(=O)Nc4ccc(C)c(C)c4)cccc3c2)ccn1 [Compound 9g]

>  <number>
99.3

$$$$
>  <molecule>
CNC(=O)c1cc(Oc2ccc3c(C(=O)Nc4ccc(OC)c(Cl)c4)cccc3c2)ccn1 [Compound 9i]

>  <number>
99.7

$$$$
>  <molecule>
CNC(=O)c1cc(Oc2ccc3c(C(=O)Nc4ccc(I)cc4)cccc3c2)ccn1 [Compound 9c]

>  <number>
92.7

$$$$

Continue with the molecule presented below.
The molecule listed as CNC(=O)c1cc(Oc2ccc3c(C(=O)Nc4ccc(OC)c(F)c4)cccc3c2)ccn1 [Compound 9d] shows inhibition at 10 µM equal to 97.4
